Target: hERG potassium channel (Homo sapiens (Human), UniProt Q12809)
Sequence (Q12809 whole entry): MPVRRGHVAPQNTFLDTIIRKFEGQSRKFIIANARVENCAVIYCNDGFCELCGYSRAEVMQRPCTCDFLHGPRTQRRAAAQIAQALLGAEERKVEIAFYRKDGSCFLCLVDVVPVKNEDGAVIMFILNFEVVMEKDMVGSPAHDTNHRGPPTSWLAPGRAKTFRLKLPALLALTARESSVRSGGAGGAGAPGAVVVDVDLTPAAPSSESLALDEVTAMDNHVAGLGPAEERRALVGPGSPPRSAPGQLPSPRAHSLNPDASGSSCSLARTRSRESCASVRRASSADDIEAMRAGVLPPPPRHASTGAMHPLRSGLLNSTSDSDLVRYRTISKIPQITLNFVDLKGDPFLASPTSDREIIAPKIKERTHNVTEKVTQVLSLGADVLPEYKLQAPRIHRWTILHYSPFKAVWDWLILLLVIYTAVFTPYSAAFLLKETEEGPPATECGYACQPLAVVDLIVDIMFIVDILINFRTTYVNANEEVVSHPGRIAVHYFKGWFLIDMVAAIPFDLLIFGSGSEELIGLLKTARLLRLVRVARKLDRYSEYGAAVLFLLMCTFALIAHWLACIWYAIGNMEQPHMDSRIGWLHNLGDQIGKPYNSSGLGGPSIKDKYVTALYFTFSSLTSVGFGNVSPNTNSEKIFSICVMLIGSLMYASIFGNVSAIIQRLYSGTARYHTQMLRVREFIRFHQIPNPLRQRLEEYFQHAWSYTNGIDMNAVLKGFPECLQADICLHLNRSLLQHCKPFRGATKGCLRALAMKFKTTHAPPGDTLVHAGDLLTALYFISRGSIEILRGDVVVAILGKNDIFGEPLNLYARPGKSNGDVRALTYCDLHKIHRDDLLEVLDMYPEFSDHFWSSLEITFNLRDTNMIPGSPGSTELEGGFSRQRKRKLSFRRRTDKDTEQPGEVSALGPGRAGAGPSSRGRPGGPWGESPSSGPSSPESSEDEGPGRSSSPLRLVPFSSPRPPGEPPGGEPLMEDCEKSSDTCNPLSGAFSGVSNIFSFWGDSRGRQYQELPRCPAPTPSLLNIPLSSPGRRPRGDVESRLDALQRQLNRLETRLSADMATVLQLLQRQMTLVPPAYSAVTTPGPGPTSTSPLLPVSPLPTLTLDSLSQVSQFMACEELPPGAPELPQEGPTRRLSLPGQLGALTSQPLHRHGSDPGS
Assay: cell-based
Protocol: Stable HEK-hERG cells were washed with DPBS, digested with Trypsin or Tryple solution, resuspended in culture medium, and stored in centrifuge tubes for use. hERG currents were recorded with a whole-cell patch clamp technique. The cell suspension was placed in a small petri dish and placed on an objective table of an inverted microscope. After attachment, the cells were perfused with extracellular fluid at a recommended flow rate of 1-2 mL/min. […]
MEASURED PROPERTY: IC50

{"SAMPLE SMILES": "C[C@H](NC(=O)c1cn(C)c2ccc(-c3ccn4nc(NC(=O)C5CC5)nc4c3)cc12)c1cccc(F)c1", "MEASURED PROPERTY": "IC50", "RECORDED RESULT": "> 30 µM"}
